tested on: DuPro human prostate cancer cell line; experiment: MTT assay, DuPro cells; assay type: cell-based; conditions: Table 1, human prostate cancer cell line DuPro, read-out: ID50 DuPro
Threshold 300 nM: IC50 strictly smaller gives Criterion met, otherwise Criterion not met.

>>> label_value("CC(C)(C)NCCCCNCC1CC1CNCCCCNC(C)(C)C (racemic)")
"Criterion not met"
>>> label_value("CCNCCCCNCC1CC1CNCCCCNCCCCNCC1CC1CNCCCCNCCCCNCC1CC1CNCCCCNCC (centres unmarked)")
"Criterion met"
>>> label_value("CCNCCCCNCC1CC1CNCCCCNCC (racemic)")
"Criterion met"
>>> label_value("CCNCC1CC1CNCCCCNCC1CC1CNCC.Cl.Cl.Cl.Cl (mixture of isomers)")
"Criterion met"
>>> label_value("CCNCCCCNCCCCNCCCCNCCCCNCC1CC1CNCCCCNCCCCNCCCCNCCCCNCC (racemic)")
"Criterion not met"
>>> label_value("CCNCCCCNCC1CC1CNCCCCNCC1CC1CNCCCCNCC (mixture of isomers)")
"Criterion not met"
>>> label_value("NCCCCNCC1CC1CNCCCCN (racemic)")
"Criterion not met"
>>> label_value("CCNCC1CC1CNCC1CC1CNCC1CC1CNCC (mixture of isomers)")
"Criterion not met"

Where do these numbers come from? They come from patent US7453011B2.
